# System: 299254-011-R-J1-PDC complex spheroid viability;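 also: spheroids exposed to drugs for one week before measurement; percent viability relative to DMSO vehicle control taken as 100%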
# Run description: Anticancer human tumor 299254-011-R-J1-PDC patient-derived melanoma cell line growth inhibition [POLQ]
# Recorded conditions: second compound 10 µM; first compound 10 µM; stronger effect = lower value
Readout kind: viability, T/C (%)
Answer with a number only, understood to be in %.

C#Cc1c(F)ccc2cc(O)cc(-c3ncc4c(N5CC6CCC(C5)N6)nc(OCC56CCCN5CC(F)C6)nc4c3F)c12 (stereo not given) + Cc1cccc(N(C)C(=O)C2C(O)CCN2c2nc(C)cc(C(F)(F)F)c2C#N)c1	64.2

Given the compound COc1cc(C2c3cc4c(cc3C(OC3OC5COC(C)OC5C(O)C3O)C3COC(=O)C23)OCO4)cc(OC)c1O (stereo not given) + Cc1cccc(N(C)C(=O)C2C(O)CCN2c2nc(C)cc(C(F)(F)F)c2C#N)c1 and test system 299254-011-R-J1-PDC complex spheroid viability, the measured viability, T/C is 59.2

Given the compound Nc1ccn(C2OC(CO)C(O)C2(F)F)c(=O)n1 (stereo not given) + COC1C(OC(N)=O)C(O)C(Oc2ccc3c(O)c(NC(=O)c4ccc(O)c(CC=C(C)C)c4)c(=O)oc3c2C)OC1(C)C and test system 299254-011-R-J1-PDC complex spheroid viability, the measured viability, T/C is 31.4

Given the compound CC1COCCN1c1cc(-c2ccnn2C)c2ccnc(-c3ccn[nH]3)c2n1 (stereo not given) + COC1C(OC(N)=O)C(O)C(Oc2ccc3c(O)c(NC(=O)c4ccc(O)c(CC=C(C)C)c4)c(=O)oc3c2C)OC1(C)C and test system 299254-011-R-J1-PDC complex spheroid viability, the measured viability, T/C is 20

Given the compound CCc1cc2c(N3CCc4c(cc(Cn5ccnc5)cc4-c4cn(C)nc4C(F)(F)F)C3=O)ccnc2c(OC)n1 + Cc1cccc(N(C)C(=O)C2C(O)CCN2c2nc(C)cc(C(F)(F)F)c2C#N)c1 and test system 299254-011-R-J1-PDC complex spheroid viability, the measured viability, T/C is 79
